Hello, the source for this data is ChEMBL document CHEMBL1909294, in case you need it.

HepSE_cholecystitis tested on Hepatotoxicity: recorded values;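 note: Cholecystitis-related hepatic side effect score drawn from the DILIps (drug-induced liver injury prediction) training data set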; note: call rule not given here
Quick one: just the number, no unit, thanks!

Hey, Hepatotoxicity data for CC[C@H](C)C(=O)O[C@H]1C[C@H](O)C=C2C=C[C@H](C)[C@H](CC[C@@H](O)C[C@@H](O)CC(=O)O)[C@H]21 : HepSE_cholecystitis came out at 0

For O=[As][As+](=O)[O-] (stereo not drawn) [ARSENIC TRIOXIDE] on Hepatotoxicity, measured HepSE_cholecystitis was 0

Bench note, Hepatotoxicity: entry C[C@H]1O[C@@H](O[C@H]2[C@@H](O)C[C@H](O[C@H]3[C@@H](O)C[C@H](O[C@H]4CC[C@@]5(C)[C@H](CC[C@@H]6[C@@H]5C[C@@H](O)[C@]5(C)[C@@H](C7=CC(=O)OC7)CC[C@]65O)C4)O[C@@H]3C)O[C@@H]2C)C[C@H](O)[C@@H]1O , its HepSE_cholecystitis = 0
